- experimentSummary: Differential scanning calorimetry (DSC) endotherms of crystalline hits
- Type: physicochemical
- conditionDetails: onset temperature
assayReadout: DSC Endo. (onset, ° C.) (°C)
Numbers only, in °C.

[
  {
    "compound": "CCCCc1nc(-c2ccc(OCCCN(CC)CC)cc2)cn1-c1ccc(Oc2ccc(Cl)cc2)cc1.COc1cc(C(=O)O)ccc1O [Vanillate Type A]",
    "DSC Endo. (onset, ° C.), °C": 99.6
  },
  {
    "compound": "CCCCc1nc(-c2ccc(OCCCN(CC)CC)cc2)cn1-c1ccc(Oc2ccc(Cl)cc2)cc1.O=C(O)C[C@H](O)C(=O)O [L-Malate Type A]",
    "DSC Endo. (onset, ° C.), °C": 67.8
  }
]

# next compound below
Task: Item CCCCc1nc(-c2ccc(OCCCN(CC)CC)cc2)cn1-c1ccc(Oc2ccc(Cl)cc2)cc1.Cl [HCl salt Type A] has what recorded DSC Endo. (onset, ° C.)?
Result: 167.0

* * *

- experimentSummary: Salt/co-crystal screening: 38 acids, eight solvent systems, solids analysed by XRPD
- Format: physicochemical
- conditionDetails: Dioxane/H2O (9:1, v/v); acid/freebase charge 1:1 unless label says 2:1; stirred at RT, else 5° C. slurry, anti-solvent addition or evaporation (footnote marks)
assayReadout: Solid obtained in salt screening (XRPD), solvent H Dioxane/H2O (9:1, v/v)

Known Solid obtained in salt screening (XRPD), solvent H Dioxane/H2O (9:1, v/v) results, listed for orientation:
[
  {
    "compound": "O=C(O)c1cccnc1",
    "measValue": "amorphous*"
  },
  {
    "compound": "O=C(O)CCCCC(=O)O",
    "measValue": "amorphous*"
  },
  {
    "compound": "CS(=O)(=O)O",
    "measValue": "gel*"
  },
  {
    "compound": "O=C(O)/C=C/c1ccccc1 [trans Cinnamic acid]",
    "measValue": "amorphous*"
  }
]

List reported Solid obtained in salt screening (XRPD), solvent H Dioxane/H2O (9:1, v/v) for each of these compounds:
1. O=C1NS(=O)(=O)c2ccccc21
2. Br.CCCCc1nc(-c2ccc(OCCCN(CC)CC)cc2)cn1-c1ccc(Oc2ccc(Cl)cc2)cc1
3. O=C(O)CCCC(=O)O
4. O=C(O)c1ccc2ccccc2c1O [1-hydroxy-2-naphthoic acid]
5. COc1cc(C(=O)O)ccc1O
6. O=C(O)c1ccccc1O

Result:
1: amorphous*; 2: gel*; 3: amorphous*; 4: amorphous*; 5: amorphous*; 6: amorphous*

* * *

- experimentSummary: Salt/co-crystal screening: 38 acids, eight solvent systems, solids analysed by XRPD
- Assay type: physicochemical
- conditionDetails: Acetone/Hexane (1:2, v/v); acid/freebase charge 1:1 unless label says 2:1; stirred at RT, else 5° C. slurry, anti-solvent addition or evaporation (footnote marks)
assayReadout: Solid obtained in salt screening (XRPD), solvent D Acetone/Hexane (1:2, v/v)

[
  {
    "compound": "O=C(O)[C@H](O)c1ccccc1",
    "measValue": "gel"
  },
  {
    "compound": "O=C(O)CCCC(=O)O",
    "measValue": "amorphous*"
  },
  {
    "compound": "CCCCCCCCCCCCCCCC(=O)O",
    "measValue": "gel*"
  },
  {
    "compound": "COc1cc(C=O)ccc1O",
    "measValue": "gel*"
  },
  {
    "compound": "C[C@H](O)C(=O)O",
    "measValue": "gel"
  },
  {
    "compound": "O=C1NS(=O)(=O)c2ccccc21",
    "measValue": "gel"
  }
]

Please state Solid obtained in salt screening (XRPD), solvent D Acetone/Hexane (1:2, v/v) for every compound in the list that follows.
1. O=C(O)C[C@H](O)C(=O)O
2. O=C(O)CC(=O)O
3. O=C(O)c1ccccc1O
4. O=C(O)/C=C/c1ccccc1 [trans Cinnamic acid]

Result:
1: gel; 2: amorphous*; 3: amorphous*; 4: gel
